Kindly state DC50 for each of the entries shown.
Target: endogenous MLKL in U937 (Homo sapiens (Human))
Sequence (Q8NB16 whole entry): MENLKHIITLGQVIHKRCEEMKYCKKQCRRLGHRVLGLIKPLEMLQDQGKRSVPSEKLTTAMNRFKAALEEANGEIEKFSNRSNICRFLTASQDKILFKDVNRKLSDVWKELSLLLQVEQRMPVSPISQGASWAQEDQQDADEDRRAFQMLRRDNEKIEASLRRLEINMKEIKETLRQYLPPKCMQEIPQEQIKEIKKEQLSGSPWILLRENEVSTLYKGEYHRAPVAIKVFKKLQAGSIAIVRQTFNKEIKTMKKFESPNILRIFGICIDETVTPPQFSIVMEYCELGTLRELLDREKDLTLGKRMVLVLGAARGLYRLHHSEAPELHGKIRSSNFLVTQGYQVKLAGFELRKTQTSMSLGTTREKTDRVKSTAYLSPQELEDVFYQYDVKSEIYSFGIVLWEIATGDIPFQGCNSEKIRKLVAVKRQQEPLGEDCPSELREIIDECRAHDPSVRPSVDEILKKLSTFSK
Assay: Degradation assay: endogenous MLKL in U937 (western blot)
Conditions: U937, 24 h incubation, read-out: Degradation of endogenous MLKL in U937 (DC50 cell-based assay)

# per-item lookup of DC50; items listed below
1. C[C@H](Oc1cc(-c2nn(C)c3c(C#CC(=O)N[C@H]4C[C@H](Nc5cccc6c5C(=O)N(C5CCC(=O)NC5=O)C6=O)C4)cnc(N)c23)ccc1NS(=O)(=O)C(F)F)c1ccc(F)cc1 (some centres unmarked) [Compound 1109]
2. Cc1ncsc1-c1ccc(CNC(=O)[C@@H]2C[C@@H](O)CN2C(=O)[C@@H](NC(=O)COCCCCn2cc(-c3cnc(N)c4c(-c5ccc(NS(=O)(=O)C(F)F)c(O[C@@H](C)c6ccc(F)cc6)c5)nn(C)c34)cn2)C(C)(C)C)cc1 [Compound 1056]

OUT:
["< 1 µM", "< 1 µM"]
